These measurements were taken from patent US10085983B2.

# Selective inhibitory activity against enzymes [IC50 (EGFR WT)/IC50 (T790M/L858R)] listing for each entry below
biological target: T790M/L858R double mutant EGFR kinase (Homo sapiens (Human), UniProt P00533, L858R/T790M); test: z'-lyte assay of inhibitory activity on T790M/L858R double mutant EGFR kinase; type: biochemical; settings: ratio of enzyme IC50 values
Sequence (P00533 25-1210 T790M/L858R): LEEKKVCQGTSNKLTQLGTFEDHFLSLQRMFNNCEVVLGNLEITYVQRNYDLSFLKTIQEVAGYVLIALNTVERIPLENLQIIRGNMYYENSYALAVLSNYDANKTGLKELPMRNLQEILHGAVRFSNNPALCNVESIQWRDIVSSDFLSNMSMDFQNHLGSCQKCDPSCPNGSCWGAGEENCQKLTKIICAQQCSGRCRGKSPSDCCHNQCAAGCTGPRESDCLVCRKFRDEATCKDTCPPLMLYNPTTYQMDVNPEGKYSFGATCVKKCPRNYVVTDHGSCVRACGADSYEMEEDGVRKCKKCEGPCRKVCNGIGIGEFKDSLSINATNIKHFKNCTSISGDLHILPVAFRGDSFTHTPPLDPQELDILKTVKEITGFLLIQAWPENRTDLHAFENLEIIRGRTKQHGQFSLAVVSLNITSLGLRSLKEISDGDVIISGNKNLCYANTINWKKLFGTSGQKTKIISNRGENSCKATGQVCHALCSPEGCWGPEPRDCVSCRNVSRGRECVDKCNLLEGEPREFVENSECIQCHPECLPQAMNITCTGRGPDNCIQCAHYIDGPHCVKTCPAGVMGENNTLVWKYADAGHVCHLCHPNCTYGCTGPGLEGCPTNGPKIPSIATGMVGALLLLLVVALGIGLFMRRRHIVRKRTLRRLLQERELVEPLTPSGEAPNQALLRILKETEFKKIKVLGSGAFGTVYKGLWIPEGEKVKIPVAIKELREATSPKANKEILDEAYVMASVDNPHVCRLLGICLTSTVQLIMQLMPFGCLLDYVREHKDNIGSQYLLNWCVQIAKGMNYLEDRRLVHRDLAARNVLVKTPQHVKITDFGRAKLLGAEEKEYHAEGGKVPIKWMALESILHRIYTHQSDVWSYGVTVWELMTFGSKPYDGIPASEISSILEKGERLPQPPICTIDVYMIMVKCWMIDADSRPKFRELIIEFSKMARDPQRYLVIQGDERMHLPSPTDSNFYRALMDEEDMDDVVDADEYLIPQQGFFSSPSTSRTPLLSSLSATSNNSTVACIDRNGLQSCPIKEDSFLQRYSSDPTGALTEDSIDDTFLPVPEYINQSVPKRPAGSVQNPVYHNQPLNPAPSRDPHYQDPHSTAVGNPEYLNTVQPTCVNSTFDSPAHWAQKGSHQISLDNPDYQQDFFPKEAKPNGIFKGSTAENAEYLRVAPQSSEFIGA
endpoint_name: Selective inhibitory activity against enzymes [IC50 (EGFR WT)/IC50 (T790M/L858R)]

> print(dat)
                                   molecule                               system.name  value.reported
1  C=CC(=O)Nc1cc(Nc2ncc3ccc(-c4cnn(C)c4)n3n2)c(OC)cc1N1CCC(N(C)C)CC1 [Compound J-2]  T790M/L858R double mutant EGFR kinase (Homo sapiens (Human), UniProt P00533, L858R/T790M)            11.5
2  C=CC(=O)Nc1cc(Nc2ncc3ccc(C4CC4)n3n2)c(OC)cc1N(C)CCN(C)C [Compound J-8]  T790M/L858R double mutant EGFR kinase (Homo sapiens (Human), UniProt P00533, L858R/T790M)              56
3  C=CC(=O)Nc1cc(Nc2ncc3ccc(-c4cnc5ccccc5c4)n3n2)c(OC)cc1N1CCC(N(C)C)CC1 [Compound J-13]  T790M/L858R double mutant EGFR kinase (Homo sapiens (Human), UniProt P00533, L858R/T790M)             4.2
4  C=CC(=O)Nc1cc(Nc2ncc3ccc(C)n3n2)c(OC)cc1N(C)CCN(C)C [Compound J-9]  T790M/L858R double mutant EGFR kinase (Homo sapiens (Human), UniProt P00533, L858R/T790M)             6.6

====

test system: H1975 cells; test: Cell growth inhibition by MTT assay, H1975 cells; type: cell-based; conditions: Homo sapiens, NCI-H1975; MTT assay, 72 hours;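 note: MTT read-out in 96-well plates after 72 h compound exposure of H1975 and A431 cells, with selectivity given as the A431 IC50 divided by the H1975 IC50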
endpoint_name: IC50

> print(dat)
                                   molecule  endpoint.name  value.reported
1  CN(C)C/C=C/C(=O)Nc1cc2c(Nc3ccc(F)c(Cl)c3)ncnc2cc1O[C@H]1CCOC1 [BIBW2992, alfatinib, reference compound]           IC50        0.088 µM
2  C=CC(=O)Nc1cc(Nc2cn3c(-c4ccn(C)c4)cnc3cn2)c(OC)cc1N(C)CCN(C)C [Compound J-16]           IC50        0.388 µM
3  C=CC(=O)Nc1cc(Nc2cn3c(-c4cccnc4)cnc3cn2)c(OC)cc1N(C)CCN(C)C [Compound J-17]           IC50        0.424 µM

====

# Selective inhibitory activity against enzymes [IC50 (EGFR WT)/IC50 (T790M/L858R)] listing for each entry below
target: T790M/L858R double mutant EGFR kinase (Homo sapiens (Human), UniProt P00533, L858R/T790M); assay: z'-lyte assay of inhibitory activity on T790M/L858R double mutant EGFR kinase; type: biochemical; conditions: ratio of enzyme IC50 values
endpoint_name: Selective inhibitory activity against enzymes [IC50 (EGFR WT)/IC50 (T790M/L858R)]

> print(dat)
                            compound.smiles                               system.name  value.reported
1  C=CC(=O)Nc1cc(Nc2ncc3ccc(C4=CCCCC4)n3n2)c(OC)cc1N(C)CCN(C)C  T790M/L858R double mutant EGFR kinase (Homo sapiens (Human), UniProt P00533, L858R/T790M)               3
2  C=CC(=O)Nc1cc(Nc2ncc3ccc(-c4cnc5c(ccn5C)c4)n3n2)c(OC)cc1N(C)CCN(C)C  T790M/L858R double mutant EGFR kinase (Homo sapiens (Human), UniProt P00533, L858R/T790M)             2.5
3  C=CC(=O)Nc1cc(Nc2ncc3ccc(-c4ccn(C)c4)n3n2)c(OC)cc1N(C)CCN(C)C  T790M/L858R double mutant EGFR kinase (Homo sapiens (Human), UniProt P00533, L858R/T790M)             4.2
4  C=CC(=O)Nc1cc(Nc2ncc3ccc(-c4cnc5ccccc5c4)n3n2)c(OC)cc1N(C)CCN(C)C  T790M/L858R double mutant EGFR kinase (Homo sapiens (Human), UniProt P00533, L858R/T790M)               3
5  C=CC(=O)Nc1cc(Nc2ncc3ccc(C4CC4)n3n2)c(OC)cc1N1CCC(N(C)C)CC1  T790M/L858R double mutant EGFR kinase (Homo sapiens (Human), UniProt P00533, L858R/T790M)             3.8
6  C=CC(=O)Nc1cc(Nc2ncc3c(C)cc(-c4cnn(C)c4)n3n2)c(OC)cc1N1CCC(N(C)C)CC1  T790M/L858R double mutant EGFR kinase (Homo sapiens (Human), UniProt P00533, L858R/T790M)             3.4
7  C=CC(=O)Nc1cc(Nc2ncc3ccc(-c4ccccc4)n3n2)c(OC)cc1N(C)CCN(C)C  T790M/L858R double mutant EGFR kinase (Homo sapiens (Human), UniProt P00533, L858R/T790M)             4.2

====

# IC50 listing for each entry below
molecular target: wild-type EGFR kinase (Homo sapiens (Human), UniProt P00533); details: read-out: EGFR WT (IC50/μM); z'-lyte assay, 10 μM ATP
Sequence (P00533 25-1210): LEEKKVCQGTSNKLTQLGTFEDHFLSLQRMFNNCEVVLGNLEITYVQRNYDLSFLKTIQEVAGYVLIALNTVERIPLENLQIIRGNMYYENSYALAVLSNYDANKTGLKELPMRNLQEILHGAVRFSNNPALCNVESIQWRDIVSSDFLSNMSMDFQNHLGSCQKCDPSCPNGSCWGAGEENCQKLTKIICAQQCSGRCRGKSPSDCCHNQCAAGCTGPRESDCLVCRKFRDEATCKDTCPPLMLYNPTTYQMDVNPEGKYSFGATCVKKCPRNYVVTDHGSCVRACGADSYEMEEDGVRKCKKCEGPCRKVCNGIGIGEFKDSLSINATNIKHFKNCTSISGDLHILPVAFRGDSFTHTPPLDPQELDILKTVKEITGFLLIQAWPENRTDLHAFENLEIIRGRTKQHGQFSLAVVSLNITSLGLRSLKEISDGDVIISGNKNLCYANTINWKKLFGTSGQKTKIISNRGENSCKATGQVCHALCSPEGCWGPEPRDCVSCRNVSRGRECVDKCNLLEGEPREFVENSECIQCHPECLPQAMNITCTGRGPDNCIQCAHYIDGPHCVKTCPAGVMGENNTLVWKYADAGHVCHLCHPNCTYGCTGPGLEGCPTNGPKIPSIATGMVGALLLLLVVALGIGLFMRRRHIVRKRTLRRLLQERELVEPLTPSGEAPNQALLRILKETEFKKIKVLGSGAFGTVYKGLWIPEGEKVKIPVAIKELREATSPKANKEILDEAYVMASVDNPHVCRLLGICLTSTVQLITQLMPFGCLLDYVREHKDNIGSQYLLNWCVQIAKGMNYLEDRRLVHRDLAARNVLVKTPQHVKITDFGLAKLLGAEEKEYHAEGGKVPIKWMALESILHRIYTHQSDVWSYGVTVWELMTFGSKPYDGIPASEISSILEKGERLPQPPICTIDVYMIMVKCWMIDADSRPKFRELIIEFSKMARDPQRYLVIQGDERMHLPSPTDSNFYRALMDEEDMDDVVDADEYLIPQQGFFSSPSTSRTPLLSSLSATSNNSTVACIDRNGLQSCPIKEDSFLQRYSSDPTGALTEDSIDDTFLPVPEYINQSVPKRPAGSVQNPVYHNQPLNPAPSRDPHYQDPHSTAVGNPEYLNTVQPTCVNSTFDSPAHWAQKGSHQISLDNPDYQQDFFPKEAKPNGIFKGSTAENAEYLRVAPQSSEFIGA
endpoint_name: IC50 (µM)

> print(dat)
                                   compound  endpoint.name   u  result.comparator  value.reported
1  C=CC(=O)Nc1cc(Nc2ncc3ccc(-c4cccnc4)n3n2)c(OC)cc1N(C)CCN(C)C [Compound J-6]           IC50  µM                  =           0.013
2  C=CC(=O)Nc1cc(Nc2ncc3ccc(-c4ccn(C)c4)n3n2)c(OC)cc1N(C)CCN(C)C [Compound J-12]           IC50  µM                  =           0.008
3  C=CC(=O)Nc1cc(Nc2ncc3c(C)cc(-c4cnn(C)c4)n3n2)c(OC)cc1N(C)CCN(C)C [Compound J-20]           IC50  µM                  =           0.294
4  C=CC(=O)Nc1cc(Nc2ncc3c(C)cc(-c4cnn(C)c4)n3n2)c(OC)cc1N1CCC(N(C)C)CC1 [Compound J-21]           IC50  µM                  >               1
5  C=CC(=O)Nc1cc(Nc2ncc3ccc(C4=CCCCC4)n3n2)c(OC)cc1N(C)CCN(C)C [Compound J-5]           IC50  µM                  =           0.009
6  C=CC(=O)Nc1cc(Nc2ncc3ccc(C4CC4)n3n2)c(OC)cc1N(C)CCN(C)C [Compound J-8]           IC50  µM                  =           0.112
7  C=CC(=O)Nc1cc(Nc2ncc3ccc(-c4cnc5c(ccn5C)c4)n3n2)c(OC)cc1N(C)CCN(C)C [Compound J-7]           IC50  µM                  =           0.005
8  C=CC(=O)Nc1cc(Nc2ncc3ccc(C4CC4)n3n2)c(OC)cc1N1CCC(N(C)C)CC1 [Compound J-15]           IC50  µM                  >               1
9  C=CC(=O)Nc1cc(Nc2ncc3ccc(-c4cnn(C)c4)n3n2)c(OC)cc1N(C)CCN(C)C [Compound J-1]           IC50  µM                  =           0.004
